percent inhibition of viability by entry:
system: YT (IL-2 2.5 ng/mL); assay: percent inhibition of viability; higher = more inhibition; details: 72 h; 10 nM;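 also: normalised to DMSO-only wells as negative and benzethonium chloride as positive control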
Form entry: value (%) — number only.

CC(C)(C)c1cc(NC(=O)Nc2ccc(-c3cn4c(n3)sc3cc(OCCN5CCOCC5)ccc34)cc2)no1 [Quizartinib] (max concentration tested 1000 nM) :: -2.32
COc1cc2/c(=N/c3ccc(Br)cc3F)nc[nH]c2cc1OCC1CCN(C)CC1 [Vandetanib] (max concentration tested 1000 nM) :: 6.02
CC[C@@H]1C(=O)N(C)c2cnc(Nc3ccc(C(=O)NC4CCN(C)CC4)cc3OC)nc2N1C1CCCC1 [BI 2536] (max concentration tested 1000 nM) :: 5.23
Cc1cc(C)c(CNC(=O)c2cc(-c3ccc(CN4CCOCC4)cc3)cc3c2cnn3C2CCCC2)c(=O)[nH]1 [EPZ-5687] (max concentration tested 10000 nM) :: -2.31
CCc1cncnc1N1CCN(Cc2nc3ccc(C(F)(F)F)cc3[nH]2)CC1 (max concentration tested 10000 nM) :: -2.69

For the compound shown here, CN1CCN(c2ccc3nc(-c4c(N)c5c(F)cccc5[nH]c4=O)[nH]c3c2)CC1 [Dovitinib] (max concentration tested 10000 nM) , give the reported percent inhibition of viability.
0.22

Then what about the compound CC(=O)O[C@@]12CO[C@@H]1C[C@H](O)[C@@]1(C)C(=O)[C@H](O)C3=C(C)[C@@H](OC(=O)[C@H](O)[C@@H](NC(=O)OC(C)(C)C)c4ccccc4)C[C@@](O)([C@@H](OC(=O)c4ccccc4)[C@H]21)C3(C)C [Docetaxel] (max concentration tested 1000 nM) ?
90.7

Now the same for Cn1cnc2c(F)c(Nc3ccc(Br)cc3F)c(C(=O)NOCCO)cc21 [Binimetinib] (max concentration tested 1000 nM)
-0.11

// same read-out, input: C=CCc1cccc(/C=N/NC(=O)CN2CCN(Cc3ccccc3)CC2)c1O [PAC-1] (max concentration tested 10000 nM)
-1.17

// same read-out, input: c1ccc2c(CCNc3ccc(Nc4ccncc4)cc3)c[nH]c2c1 [Serdemetan] (max concentration tested 10000 nM)
-0.09

These measurements were taken from the supplement of paper PMC5908809.
